# system name: mannose-specific lectin concanavalin A (ConA) (Canavalia ensiformis)
# assay remarks: ELLA (Enzyme-Linked Lectin Assay): inhibition of the combination of yeast mannan and horse-radish peroxidase-labelled ConA
# Format: binding
property label: IC50 (µM)
Provide only the numeric value, understood in µM.

q: Return value of IC50 for input CO[C@H]1O[C@H](CO)[C@@H](O)[C@H](O)[C@H]1O [Me-α-D-Glcp, methyl-α-D-glucopyranoside, reference compound] , no commentary.
a: 865
